B1: glmS ribozyme (parent)
chain: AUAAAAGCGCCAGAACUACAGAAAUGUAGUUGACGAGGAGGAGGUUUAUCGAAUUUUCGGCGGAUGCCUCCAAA

Variants of: B1
Assay: self-cleavage kobs at 40 uM GlcN6P; higher = faster cleavage; RNA array
Conditions: with glucosamine-6-phosphate
This sample holds only a part of the variants without activity.
Measured Endpoint: self-cleavage kobs at 40 uM GlcN6P

>  <Sequence Change>
A14U A33C G35C U55C

>  <Measured>
< 1e-05 s⁻¹

$$$$

Prompt line: Please give the documented self-cleavage kobs at 40 uM GlcN6P of A39U G43A C67G
Response line: 0.000153 s⁻¹

Prompt line: Please give the documented self-cleavage kobs at 40 uM GlcN6P of C10G C11U
Response line: < 1e-05 s⁻¹

Value source: the supplement of paper PMC7125110
